Target: hMAO-B (Homo sapiens)
Sequence (P27338 whole entry): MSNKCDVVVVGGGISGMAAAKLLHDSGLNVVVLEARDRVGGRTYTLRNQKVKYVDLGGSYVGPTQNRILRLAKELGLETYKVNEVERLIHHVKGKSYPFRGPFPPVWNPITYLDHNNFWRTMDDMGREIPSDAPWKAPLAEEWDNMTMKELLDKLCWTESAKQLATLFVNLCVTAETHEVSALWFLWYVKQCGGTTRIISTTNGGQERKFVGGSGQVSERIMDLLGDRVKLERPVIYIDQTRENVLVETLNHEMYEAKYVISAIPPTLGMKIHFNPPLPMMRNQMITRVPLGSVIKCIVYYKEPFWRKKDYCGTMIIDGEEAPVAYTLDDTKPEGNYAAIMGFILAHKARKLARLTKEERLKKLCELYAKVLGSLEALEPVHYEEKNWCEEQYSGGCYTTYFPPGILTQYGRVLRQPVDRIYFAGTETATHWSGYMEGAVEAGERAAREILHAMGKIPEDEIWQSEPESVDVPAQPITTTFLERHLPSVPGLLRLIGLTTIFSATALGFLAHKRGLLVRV
Assay: hMAO-B inhibition, Amplex Red fluorometric assay
Details: recombinant hMAO-B, p-tyramine substrate; mean SEM
pIC50: −log10 of the molar value.
outcomeMeasure: pIC50

O=C(/C=C/c1ccc(O)c(O)c1)Nc1cccc(F)c1 [Compound 4] ... 4.24

(1) CC1CCC(C(C)C)C(OC(=O)/C=C/c2ccc(O)c(O)c2)C1 (stereo not drawn) [Compound 12]
(2) O=C(/C=C/c1ccc(O)c(O)c1)Nc1cccc2ccccc12 [Compound 5]
Query: For 1 and 2 , which recorded pIC50 is lower? State the label of the item chosen.
Result: 1
(1: 4.31, 2: 4.97)

---

Molecular target: hMAO-A (Homo sapiens)
Assay: hMAO-A inhibition, Amplex Red fluorometric assay
Settings: recombinant hMAO-A, p-tyramine substrate; mean SEM
outcomeMeasure: IC50 (µM)

O=C(/C=C/c1ccc(O)c(O)c1)Nc1cccc(F)c1 ... 18.5
COc1cc(C=O)ccc1OC(=O)/C=C/c1ccc(O)c(O)c1 ... 20.4

(P) CCNC(=O)/C=C/c1ccc(O)c(O)c1
(Q) O=C(/C=C/c1ccc(O)c(O)c1)Nc1ccc([N+](=O)[O-])cc1Cl
Query: Problem: Given the entries P and Q , determine which has the lower reported IC50. Response format: the label of the selected entry.
Result: Q

---

Target: hMAO-A (Homo sapiens, UniProt P21397)
Sequence (P21397 whole entry): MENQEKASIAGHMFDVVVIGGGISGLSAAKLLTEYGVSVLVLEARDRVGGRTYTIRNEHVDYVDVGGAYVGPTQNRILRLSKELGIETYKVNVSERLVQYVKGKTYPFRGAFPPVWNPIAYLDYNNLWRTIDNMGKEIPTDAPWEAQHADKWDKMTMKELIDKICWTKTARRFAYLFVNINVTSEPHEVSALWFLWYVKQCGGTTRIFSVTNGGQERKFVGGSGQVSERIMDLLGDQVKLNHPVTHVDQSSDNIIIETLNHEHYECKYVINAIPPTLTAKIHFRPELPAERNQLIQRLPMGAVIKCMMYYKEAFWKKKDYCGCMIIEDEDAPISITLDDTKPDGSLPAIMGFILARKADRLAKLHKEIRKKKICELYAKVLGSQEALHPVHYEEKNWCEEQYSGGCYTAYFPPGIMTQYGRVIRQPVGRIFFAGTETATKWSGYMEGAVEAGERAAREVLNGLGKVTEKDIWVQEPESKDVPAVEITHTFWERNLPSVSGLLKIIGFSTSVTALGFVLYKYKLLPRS
Assay: hMAO-A inhibition, Amplex Red fluorometric assay;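 note: recombinant human MAO-A and MAO-B from baculovirus-infected insect cell microsomes, H2O2 formation detected fluorometrically via Amplex Red with horseradish peroxidase, background from enzyme-free wells subtracted, distilled water negative control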
Conditions: recombinant hMAO-A, p-tyramine substrate; mean SEM
outcomeMeasure: IC50 (µM)

O=C(O)/C=C/c1ccc(O)c(O)c1 [Caffeic acid, reference compound] ... 11.7
O=C(/C=C/c1ccc(O)c(O)c1)Oc1cccc(O)c1 ... 10.3
CC1CCC(C(C)C)C(OC(=O)/C=C/c2ccc(O)c(O)c2)C1 (stereo not drawn) ... 22

(A) Cc1ccc(C(C)C)cc1OC(=O)/C=C/c1ccc(O)c(O)c1
(B) O=C(/C=C/c1ccc(O)c(O)c1)Nc1cccc2ccccc12
Query: When A and B are compared, which has the higher number for IC50? Lab log: write the label of the selected item as the result.
Result: B
(B: 50.3 µM, A: 19.8 µM)

---

This section presents compounds with their documented melting point values.

O=C(/C=C/c1ccc(O)c(O)c1)Nc1ccc(Cl)cc1[N+](=O)[O-] ... 200 to 202 °C
Cc1ccc(C(C)C)cc1OC(=O)/C=C/c1ccc(O)c(O)c1 ... 182 to 182.6 °C
O=C(/C=C/c1ccc(O)c(O)c1)Oc1ccc2ccccc2c1 ... 176 to 176.9 °C

Query: Report melting point for C=CCc1ccc(OC(=O)/C=C/c2ccc(O)c(O)c2)c(OC)c1 please.
Result: 161 to 161.7 °C

Query: # melting point lookup, item O=C(/C=C/c1ccc(O)c(O)c1)Oc1cccc(O)c1
Result: 198 to 198.4 °C

Query: Sample O=C(/C=C/c1ccc(O)c(O)c1)Nc1cccc2ccccc12 — what was its melting point?
Result: 176 to 176.3 °C

Query: Returns the measured melting point for the input compound. Input: COc1cc(C=O)ccc1OC(=O)/C=C/c1ccc(O)c(O)c1
Result: 150 to 151 °C

Query: Request the reported melting point associated with O=C(/C=C/c1ccc(O)c(O)c1)Nc1ccc([N+](=O)[O-])cc1Cl
Result: 230 to 231 °C
